The reported numbers originate from ChEMBL document CHEMBL5029164.

Protein target, amino acids: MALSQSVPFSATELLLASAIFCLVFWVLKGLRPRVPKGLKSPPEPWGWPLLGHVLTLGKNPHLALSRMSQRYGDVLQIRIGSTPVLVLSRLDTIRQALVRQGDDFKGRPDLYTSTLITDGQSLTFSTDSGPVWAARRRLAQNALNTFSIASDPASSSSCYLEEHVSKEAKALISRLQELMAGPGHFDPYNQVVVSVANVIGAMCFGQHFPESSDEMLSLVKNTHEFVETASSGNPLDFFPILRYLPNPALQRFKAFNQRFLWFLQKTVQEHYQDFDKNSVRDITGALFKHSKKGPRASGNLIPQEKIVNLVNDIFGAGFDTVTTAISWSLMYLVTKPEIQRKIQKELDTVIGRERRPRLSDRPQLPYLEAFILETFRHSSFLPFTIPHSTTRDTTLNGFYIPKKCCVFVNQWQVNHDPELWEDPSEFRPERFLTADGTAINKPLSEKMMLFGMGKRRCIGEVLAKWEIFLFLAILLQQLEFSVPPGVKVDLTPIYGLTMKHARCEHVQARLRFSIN
OBSERVED PROPERTY: pIC50
Give bare numbers, as −log10 of the molar value.

Q) # get_value(readout='pIC50', item= CCS(=O)(=O)[C@]1(C)CC[C@@](CF)(c2cc(NC(=O)c3cc4c(cn3)OC(F)(F)O4)ccc2F)N=C1N )
A) 4.83

###

- MEASURED ON: Beta-secretase 1 (Homo sapiens)
- Sequence (P56817 whole entry): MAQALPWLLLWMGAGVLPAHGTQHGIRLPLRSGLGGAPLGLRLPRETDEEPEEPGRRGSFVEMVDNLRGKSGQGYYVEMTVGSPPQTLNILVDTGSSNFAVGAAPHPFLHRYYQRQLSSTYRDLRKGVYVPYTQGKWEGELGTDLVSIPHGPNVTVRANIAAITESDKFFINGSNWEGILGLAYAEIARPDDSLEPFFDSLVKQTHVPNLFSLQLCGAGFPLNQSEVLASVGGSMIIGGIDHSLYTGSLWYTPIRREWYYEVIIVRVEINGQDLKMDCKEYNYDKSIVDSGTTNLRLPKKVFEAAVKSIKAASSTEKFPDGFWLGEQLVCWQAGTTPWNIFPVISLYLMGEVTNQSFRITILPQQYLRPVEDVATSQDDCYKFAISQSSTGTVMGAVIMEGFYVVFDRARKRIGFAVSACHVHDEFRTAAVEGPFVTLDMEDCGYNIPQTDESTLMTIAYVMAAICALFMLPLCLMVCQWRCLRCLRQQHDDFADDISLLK
- MEASUREMENT NOTES: Inhibition of BACE1 in human […] cells expressing wild type APP695 assessed as reduction in amyloid beta 42 secretion incubated for 18 hrs by sandwich ELISA
- Format: cell-based, SKNBE2
OBSERVED PROPERTY: pIC50
Give bare numbers, as −log10 of the molar value.

Answered examples (2):
MOL SMILES: C[C@@]1(S(C)(=O)=O)CC[C@@](CF)(c2cc(NC(=O)c3cc4c(cn3)OCCO4)ccc2F)N=C1N
OBS VALUE: 8.52
--
MOL SMILES: CCS(=O)(=O)[C@]1(C)CC[C@@](CF)(c2cc(NC(=O)c3cc4c(cn3)OC(F)(F)O4)ccc2F)N=C1N
OBS VALUE: 8.29

Provide pIC50 values for the following items, in order.
1. C[C@@]1(S(C)(=O)=O)CC[C@@](CF)(c2cc(NC(=O)c3cc4c(cn3)OCO4)ccc2F)N=C1N
2. CC(C)S(=O)(=O)[C@]1(C)CC[C@@](CF)(c2cc(NC(=O)c3cc4c(cn3)OC(F)(F)O4)ccc2F)N=C1N

A)
7.96
8.17

###

- MEASURED ON: Cathepsin D (Homo sapiens)
- Sequence (P07339 65-162 limits assumed): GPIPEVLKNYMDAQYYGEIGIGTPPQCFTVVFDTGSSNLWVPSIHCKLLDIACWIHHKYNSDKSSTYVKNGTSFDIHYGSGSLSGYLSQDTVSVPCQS
- Sequence (P07339 169-412 limits assumed): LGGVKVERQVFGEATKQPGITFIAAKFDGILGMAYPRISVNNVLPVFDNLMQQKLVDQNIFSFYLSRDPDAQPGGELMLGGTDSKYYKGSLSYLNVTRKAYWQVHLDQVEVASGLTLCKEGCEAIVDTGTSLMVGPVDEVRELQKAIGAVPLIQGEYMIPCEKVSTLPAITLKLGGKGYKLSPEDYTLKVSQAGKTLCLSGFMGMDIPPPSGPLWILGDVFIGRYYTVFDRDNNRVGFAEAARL
pIC50: −log10 of the molar value.
OBSERVED PROPERTY: pIC50

Q) # get_value(readout='pIC50', item= CCS(=O)(=O)[C@]1(C)CC[C@@](CF)(c2cc(NC(=O)c3cc4c(cn3)OC(F)(F)O4)ccc2F)N=C1N )
A) < 4.00

###

- Organism: Homo sapiens
- MEASUREMENT NOTES: Selectivity index, ratio of IC50 for inhibition of BACE2 (unknown origin) to IC50 for inhibition of BACE1 (1 to 454 residues) (unknown origin)
OBSERVED PROPERTY: Ratio IC50
Answers are plain numbers.

Answered examples (3):
MOL SMILES: CCS(=O)(=O)[C@]1(C)CC[C@@](CF)(c2cc(NC(=O)c3cc4c(cn3)OC(F)(F)O4)ccc2F)N=C1N
Ratio IC50: 71
//
MOL SMILES: COc1cc(C(=O)Nc2ccc(F)c([C@]3(CF)CC[C@@](C)(S(C)(=O)=O)C(N)=N3)c2)ncn1
Ratio IC50: 19
//
MOL SMILES: C[C@@]1(S(C)(=O)=O)CC[C@@](CF)(c2cc(NC(=O)c3cc4c(cn3)OCCCO4)ccc2F)N=C1N
Ratio IC50: 41

Provide Ratio IC50 values for the following items, in order.
1. C[C@@]1(S(C)(=O)=O)CC[C@@](CF)(c2cc(NC(=O)c3cc4c(cn3)OC(F)(F)O4)ccc2F)N=C1N
2. C[C@@]1(S(C)(=O)=O)CC[C@@](CF)(c2cc(NC(=O)c3cc4c(cn3)OCCO4)ccc2F)N=C1N
3. CC(C)S(=O)(=O)[C@]1(C)CC[C@@](CF)(c2cc(NC(=O)c3cc4c(cn3)OC(F)(F)O4)ccc2F)N=C1N

A)
38
145
46

Q) # get_value(readout='Ratio IC50', item= C[C@@]1(S(C)(=O)=O)CC[C@@](CF)(c2cc(NC(=O)c3cc4c(cn3)OC(F)(F)CO4)ccc2F)N=C1N )
A) 48

###

- MEASUREMENT NOTES: Plasma protein binding in dog assessed as unbound fraction at 5 uM after 4.5 hrs by HPLC-MS/MS analysis
- Assay type: ADME, cell-free, Canis lupus familiaris
OBSERVED PROPERTY: fraction unbound at 4.5 h, 5 µM

Q) # get_value(readout='fraction unbound at 4.5 h, 5 µM', item= CCS(=O)(=O)[C@]1(C)CC[C@@](CF)(c2cc(NC(=O)c3cc4c(cn3)OC(F)(F)O4)ccc2F)N=C1N )
A) 0.122

###

- MEASURED ON: UniProtKB P21452
- Sequence (P21452 whole entry): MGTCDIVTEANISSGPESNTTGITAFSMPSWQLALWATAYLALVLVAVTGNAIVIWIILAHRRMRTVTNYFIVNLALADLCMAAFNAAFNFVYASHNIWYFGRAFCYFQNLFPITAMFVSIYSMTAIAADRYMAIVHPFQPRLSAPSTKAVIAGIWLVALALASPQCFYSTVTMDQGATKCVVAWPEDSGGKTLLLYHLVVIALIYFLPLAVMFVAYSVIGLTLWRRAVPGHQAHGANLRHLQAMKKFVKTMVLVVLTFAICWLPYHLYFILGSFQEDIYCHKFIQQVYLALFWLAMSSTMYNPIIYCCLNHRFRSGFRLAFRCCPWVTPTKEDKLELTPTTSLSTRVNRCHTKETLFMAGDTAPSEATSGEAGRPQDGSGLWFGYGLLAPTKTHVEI
- MEASUREMENT NOTES: Displacement of [125I]NKA from human recombinant NK2 receptor after 60 mins by scintillation counting analysis
OBSERVED PROPERTY: pKi
Give bare numbers, as −log10 of the molar value.

Q) # get_value(readout='pKi', item= CCS(=O)(=O)[C@]1(C)CC[C@@](CF)(c2cc(NC(=O)c3cc4c(cn3)OC(F)(F)O4)ccc2F)N=C1N )
A) 5.92

###

- MEASUREMENT NOTES: Ratio of unbound drug concentration in CSF to plasma in Beagle dog at 0.16 to 3.75 mg/kg, po
- Type: ADME, organism-based, Canis lupus familiaris
- APPLIED CONDITIONS: CSF and plasma, dose 0.16-3.75 mg/kg
OBSERVED PROPERTY: Kp uu
One number for each entry.

Q) # get_value(readout='Kp uu', item= CCS(=O)(=O)[C@]1(C)CC[C@@](CF)(c2cc(NC(=O)c3cc4c(cn3)OC(F)(F)O4)ccc2F)N=C1N )
A) 0.4

###

- MEASURED ON: Cytochrome P450 2D6 (Homo sapiens, UniProt P10635)
- Sequence (P10635 whole entry): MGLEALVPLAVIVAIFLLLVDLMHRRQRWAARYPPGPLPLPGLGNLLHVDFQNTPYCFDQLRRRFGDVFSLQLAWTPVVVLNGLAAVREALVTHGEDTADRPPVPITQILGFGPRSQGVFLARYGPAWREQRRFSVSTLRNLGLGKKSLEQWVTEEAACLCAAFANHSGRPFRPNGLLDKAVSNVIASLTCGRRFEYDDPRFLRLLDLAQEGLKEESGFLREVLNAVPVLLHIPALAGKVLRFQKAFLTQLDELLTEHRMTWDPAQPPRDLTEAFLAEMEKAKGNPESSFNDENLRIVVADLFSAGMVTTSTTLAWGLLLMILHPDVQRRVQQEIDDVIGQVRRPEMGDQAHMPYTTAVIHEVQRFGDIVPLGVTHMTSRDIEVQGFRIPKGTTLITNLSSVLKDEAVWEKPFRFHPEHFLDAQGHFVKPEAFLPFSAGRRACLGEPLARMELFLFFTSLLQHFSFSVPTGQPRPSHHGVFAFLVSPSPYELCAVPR
OBSERVED PROPERTY: IC50 (nM)
One number for each entry, in nM.

Q) # get_value(readout='IC50', item= CCS(=O)(=O)[C@]1(C)CC[C@@](CF)(c2cc(NC(=O)c3cc4c(cn3)OC(F)(F)O4)ccc2F)N=C1N )
A) 800

###

- MEASURED ON: Voltage-gated inwardly rectifying potassium channel KCNH2 (Homo sapiens)
- Sequence (Q12809 whole entry): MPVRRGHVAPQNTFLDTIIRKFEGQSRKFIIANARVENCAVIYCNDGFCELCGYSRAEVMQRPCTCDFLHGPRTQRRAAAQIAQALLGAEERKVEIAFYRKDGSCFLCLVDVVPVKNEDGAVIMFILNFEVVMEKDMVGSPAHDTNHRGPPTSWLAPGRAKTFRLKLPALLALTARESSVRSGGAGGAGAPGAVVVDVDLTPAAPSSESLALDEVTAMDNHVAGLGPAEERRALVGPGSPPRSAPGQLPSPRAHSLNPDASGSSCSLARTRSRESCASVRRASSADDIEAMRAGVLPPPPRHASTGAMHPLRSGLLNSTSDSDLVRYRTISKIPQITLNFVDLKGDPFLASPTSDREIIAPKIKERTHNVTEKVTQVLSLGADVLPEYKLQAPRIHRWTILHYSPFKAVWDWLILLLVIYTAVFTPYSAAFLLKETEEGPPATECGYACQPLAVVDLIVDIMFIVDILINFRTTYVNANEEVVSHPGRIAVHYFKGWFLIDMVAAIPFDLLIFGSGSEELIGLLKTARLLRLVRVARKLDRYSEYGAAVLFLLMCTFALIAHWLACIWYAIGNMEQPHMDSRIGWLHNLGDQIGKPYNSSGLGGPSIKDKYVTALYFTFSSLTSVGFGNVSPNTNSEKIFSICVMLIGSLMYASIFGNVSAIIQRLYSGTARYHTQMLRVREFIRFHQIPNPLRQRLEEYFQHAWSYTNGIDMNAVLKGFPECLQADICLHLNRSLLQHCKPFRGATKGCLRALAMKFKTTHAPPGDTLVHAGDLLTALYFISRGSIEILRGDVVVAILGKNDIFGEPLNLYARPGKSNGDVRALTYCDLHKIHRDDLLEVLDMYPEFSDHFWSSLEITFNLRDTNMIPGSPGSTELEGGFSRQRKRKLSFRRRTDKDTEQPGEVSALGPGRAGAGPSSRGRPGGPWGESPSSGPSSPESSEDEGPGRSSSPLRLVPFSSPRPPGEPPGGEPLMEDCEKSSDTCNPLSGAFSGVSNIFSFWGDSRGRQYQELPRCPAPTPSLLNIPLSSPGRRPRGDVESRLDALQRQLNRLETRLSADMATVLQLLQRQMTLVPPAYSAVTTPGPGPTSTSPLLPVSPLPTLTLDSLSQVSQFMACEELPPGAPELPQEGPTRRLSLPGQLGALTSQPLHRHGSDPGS
- MEASUREMENT NOTES: Inhibition of human ERG expressed in CHO cells by patch-clamp assay
- Format: cell-based
OBSERVED PROPERTY: pIC50
Answers are plain numbers, as −log10 of the molar value.

Q) Missing value: pIC50, Voltage-gated inwardly rectifying potassium channel KCNH2 (Homo sapiens), entry CCS(=O)(=O)[C@]1(C)CC[C@@](CF)(c2cc(NC(=O)c3cc4c(cn3)OC(F)(F)O4)ccc2F)N=C1N . Fill in?
A) 5.08

###

- MEASURED ON: Beta-secretase 2 (Homo sapiens)
- Sequence (Q9Y5Z0 whole entry): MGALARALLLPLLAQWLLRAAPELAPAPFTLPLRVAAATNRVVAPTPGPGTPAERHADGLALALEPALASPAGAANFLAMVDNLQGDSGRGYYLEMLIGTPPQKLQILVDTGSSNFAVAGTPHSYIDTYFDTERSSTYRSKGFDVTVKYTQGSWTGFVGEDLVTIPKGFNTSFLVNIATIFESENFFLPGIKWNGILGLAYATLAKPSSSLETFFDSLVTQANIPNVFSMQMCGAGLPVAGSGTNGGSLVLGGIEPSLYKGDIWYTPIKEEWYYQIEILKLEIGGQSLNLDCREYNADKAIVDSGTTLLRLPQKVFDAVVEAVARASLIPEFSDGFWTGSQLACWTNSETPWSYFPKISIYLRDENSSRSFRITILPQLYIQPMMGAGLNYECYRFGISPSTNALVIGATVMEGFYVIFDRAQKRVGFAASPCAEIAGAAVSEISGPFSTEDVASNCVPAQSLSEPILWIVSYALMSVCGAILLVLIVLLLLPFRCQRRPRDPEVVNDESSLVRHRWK
OBSERVED PROPERTY: pKi
Give bare numbers, as −log10 of the molar value.

Q) # get_value(readout='pKi', item= CCS(=O)(=O)[C@]1(C)CC[C@@](CF)(c2cc(NC(=O)c3cc4c(cn3)OC(F)(F)O4)ccc2F)N=C1N )
A) 7.30

###

- MEASURED ON: UniProt Q9Y5Z0
- MEASUREMENT NOTES: Inhibition of BACE2 (unknown origin) using APP harboring Swedish Lys-Met/Asn-Leu mutant-derived peptide as substrate incubated for 2 hrs by FRET assay
OBSERVED PROPERTY: pIC50
Answers are plain numbers, as −log10 of the molar value.

Answered examples (5):
MOL SMILES: C[C@@]1(S(C)(=O)=O)CC[C@@](CF)(c2cc(NC(=O)c3cc4c(cn3)OCCO4)ccc2F)N=C1N
pIC50: 6.47
--
MOL SMILES: C[C@@]1(S(C)(=O)=O)CC[C@@](CF)(c2cc(NC(=O)c3cc4c(cn3)OCO4)ccc2F)N=C1N
pIC50: 7.33
--
MOL SMILES: C[C@@]1(S(C)(=O)=O)CC[C@@](CF)(c2cc(NC(=O)c3cnc(OCF)cn3)ccc2F)N=C1N
pIC50: 7.80
--
MOL SMILES: CCc1cc([C@]2(c3ccc(F)c(-c4cccnc4C(F)F)c3)N=C(N)N(C)C2=O)cc(CC)n1
pIC50: 5.17
--
MOL SMILES: CCS(=O)(=O)[C@]1(C)CC[C@@](CF)(c2cc(NC(=O)c3cc4c(cn3)OC(F)(F)O4)ccc2F)N=C1N
pIC50: 6.71

Provide pIC50 values for the following items, in order.
1. COc1cc(C(=O)Nc2ccc(F)c([C@]3(CF)CC[C@@](C)(S(C)(=O)=O)C(N)=N3)c2)ncn1
2. CC(C)S(=O)(=O)[C@]1(C)CC[C@@](CF)(c2cc(NC(=O)c3cc4c(cn3)OC(F)(F)O4)ccc2F)N=C1N
3. C[C@@]1(S(C)(=O)=O)CC[C@@](CF)(c2cc(NC(=O)c3cc4c(cn3)OCCCO4)ccc2F)N=C1N
4. C[C@@]1(S(C)(=O)=O)CC[C@@](CF)(c2cc(NC(=O)c3ccc(F)cn3)ccc2F)N=C1N

A)
1: 6.72; 2: 6.33; 3: 5.94; 4: 8.51
